Consider the following molecules; for each one, report its Healthy zooxanthellae released.
tested on: symbiotic zooxanthellae released from coral nubbins; test: Zooxanthellae counts: zooxanthellae released in water surrounding coral nubbins; type: in vivo, Acropora sp.; conditions: end of incubation (72 h)

Completed entries (count: 3):
CO[C@@]12[C@H](COC(N)=O)C3=C(C(=O)C(C)=C(N)C3=O)N1C[C@@H]1N[C@@H]12 [MITO, Mitomycin C, reference compound] :: 0.00E+00 cells ml^−1
CC(C)(C)CC(C)(C)c1cc(Cc2cc(C(C)(C)CC(C)(C)C)cc(-n3nc4ccccc4n3)c2O)c(O)c(-n2nc3ccccc3n2)c1 :: 4.70E+02 cells ml^−1
CCCCCCCCCCCCCCCC(=O)OC/C=C(C)/C=C/C=C(C)/C=C/C1=C(C)CCCC1(C)C [System D19, retinyl palmitate] :: 1.07E+03 cells ml^−1

Working through the 5 molecules below one at a time, give Healthy zooxanthellae released for each.
1. Cc1c(C)c2c(c(C)c1O)CC[C@@](C)(CCC[C@H](C)CCC[C@H](C)CCCC(C)C)O2
2. CC1=C(/C=C/C(C)=C/C=C/C(C)=C/CO)C(C)(C)CCC1
3. CCCCCCOC(=O)c1ccccc1C(=O)c1ccc(N(CC)CC)cc1O
4. CCCCC(CC)COC(=O)c1ccc(Nc2nc(Nc3ccc(C(=O)OCC(CC)CCCC)cc3)nc(Nc3ccc(C(=O)OCC(CC)CCCC)cc3)n2)cc1 (centres unmarked)
5. CC(=O)Oc1c(C)c(C)c2c(c1C)CCC(C)(CCC[C@H](C)CCC[C@H](C)CCCC(C)C)O2 (mixture of isomers) [System D17, DL-tocopherol-acetate]

1. 4.09E+03 cells ml^−1
2. 6.04E+02 cells ml^−1
3. 3.35E+02 cells ml^−1
4. 2.68E+02 cells ml^−1
5. 1.48E+03 cells ml^−1
